Each recorded value in this set is attributed to ChEMBL document CHEMBL4257459.

- Tested on: Candida albicans
- Protocol Summary: Inhibition of ABC efflux pumps in fluconazole susceptible Candida albicans 0072gr assessed as reduction in energy-dependent rhodamine 6G efflux in presence of 0.1 M glucose after 25 mins […] relative to control
Examples of compounds with documented inhibition follow.

Ask: Consider the compound `O=C(/C=C/c1ccc(/C=C/C(=O)c2ccccc2)cc1)c1ccccc1` and give its measured inhibition.
Result: < 20%

Ask: NC(=S)N1N=C(c2ccccc2)CC1c1ccc(C2CC(c3ccccc3)=NN2C(N)=S)cc1 (configuration not stated) , same question.
Result: < 20%

Ask: O=C1NC(c2ccccc2)=CC(c2ccc(C3C=C(c4ccccc4)NC(=O)N3)cc2)N1 (configuration not stated) , same question.
Result: < 20%

Ask: SC1=NC(c2ccccc2)=CC(c2ccccc2)N1 (configuration not stated) , same question.
Result: < 20%

Ask: c1ccc(C2=NOC(c3ccccc3)C2)cc1 (configuration not stated) , same question.
Result: < 20%

* * *

- Test system: Candida albicans
- Protocol Summary: Antifungal activity against fluconazole susceptible Candida albicans 0079gr by CLSI protocol based broth microdilution method
- Format: functional
Property Measured: MIC

Example entries begin here.
In [3]: df
Out[3]:
                                   compound  property_measured         obs_value
0  SC1=NC(c2ccccc2)=CC(c2ccccc2)N1 (stereo not drawn)                MIC    0.5 to 4 µg/mL
1  S=C1NC(c2ccccc2)=CC(c2ccc(C3C=C(c4ccccc4)NC(=S)N3)cc2)N1 (stereo not drawn)                MIC  0.125 to 1 µg/mL
2  O=C1NC(c2ccccc2)=CC(c2ccc(C3C=C(c4ccccc4)NC(=O)N3)cc2)N1 (stereo not drawn)                MIC   0.25 to 2 µg/mL
3  NC(=S)N1N=C(c2ccccc2)CC1c1ccc(C2CC(c3ccccc3)=NN2C(N)=S)cc1 (stereo not drawn)                MIC    8 to 125 µg/mL
4  c1ccc(C2=NOC(c3ccccc3)C2)cc1 (stereo not drawn)                MIC     4 to 31 µg/mL
5  O=C1NC(c2ccccc2)=CC(c2ccccc2)N1 (stereo not drawn)                MIC      1 to 8 µg/mL

Ask: Consider the compound `O=C(/C=C/c1ccc(/C=C/C(=O)c2ccccc2)cc1)c1ccccc1` and give its measured MIC.
Result: 2 to 16 µg/mL

Ask: OC(Cn1cncn1)(Cn1cncn1)c1ccc(F)cc1F [FLUCONAZOLE] , same question.
Result: 2 to 8 µg/mL

* * *

- Tested on: Candida albicans
- Protocol Summary: Inhibition of ABC efflux pumps in fluconazole susceptible Candida albicans 004B1 assessed as reduction in energy-dependent rhodamine 6G efflux in presence of 0.1 M glucose after 25 mins by fluorescence assay relative to control
Examples of compounds with documented inhibition follow.

Example entries begin here.
In [3]: df
Out[3]:
                                   compound  obs_value
0  O=C(/C=C/c1ccc(/C=C/C(=O)c2ccccc2)cc1)c1ccccc1      < 20%
1                O=C(/C=C/c1ccccc1)c1ccccc1      < 20%
2  SC1=NC(c2ccccc2)=CC(c2ccccc2)N1 (configuration not stated)      < 20%

Ask: Consider the compound c1ccc(C2=NOC(c3ccc(C4CC(c5ccccc5)=NO4)cc3)C2)cc1 (configuration not stated) and give its measured inhibition.
Result: < 20%

Ask: S=C1NC(c2ccccc2)=CC(c2ccc(C3C=C(c4ccccc4)NC(=S)N3)cc2)N1 (configuration not stated) , same question.
Result: 28%
